# Emax values compiled below
# TARGET OR SYSTEM: human Kir2.1 (Homo sapiens)
# Construct: expressed in transfected cells
# Sequence (P63252 whole entry): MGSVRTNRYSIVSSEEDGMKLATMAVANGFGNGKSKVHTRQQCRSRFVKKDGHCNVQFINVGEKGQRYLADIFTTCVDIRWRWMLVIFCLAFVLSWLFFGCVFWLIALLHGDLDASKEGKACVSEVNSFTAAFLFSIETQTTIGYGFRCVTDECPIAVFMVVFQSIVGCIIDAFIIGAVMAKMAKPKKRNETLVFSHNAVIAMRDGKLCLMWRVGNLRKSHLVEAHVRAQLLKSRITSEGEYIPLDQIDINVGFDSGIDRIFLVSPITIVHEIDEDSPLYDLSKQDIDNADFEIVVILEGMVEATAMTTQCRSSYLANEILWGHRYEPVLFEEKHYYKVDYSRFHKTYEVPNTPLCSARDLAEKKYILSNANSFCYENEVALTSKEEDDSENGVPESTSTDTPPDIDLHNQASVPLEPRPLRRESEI
# PROTOCOL DESCRIPTION: Kir2.1 thallium flux assay
# Type: cell-based
# CONDITION INFO: efficacy from 4PL fit, relative to ML133; read-out: Thallium Flux Efficacy (% Inhibition)
Numbers only; they are read as %.

COc1ccc(CNCc2ccc(-c3cccnc3)cc2)cc1 98
COc1ccc(CNCc2cccc(-c3ccccc3)c2)cc1 106
COc1ccc(CNCc2ccc(-c3cccc(OC)c3)cc2)cc1 101
COc1ccc(CNCc2ccc(-c3ccc(F)cc3)cc2)cc1 99
COc1ccc(CNCc2ccc(-c3ccccc3F)cc2)cc1 102
COc1ccc(CNCc2ccc(-c3cccc(F)c3)cc2)cc1 99
COc1ccc(CNCc2ccc3c(c2)OC(F)(F)O3)cc1 99
[2H]C([2H])([2H])Oc1ccc(CNCc2cccc3ccccc23)cc1 102
COc1ccc(CNCc2ccc(-c3cccc(C#N)c3)cc2)cc1 100

Next:
Given `COc1ccc(CNCc2ccc(-c3cccc(C)c3)cc2)cc1` , state its recorded Emax.
99
